Biological target: 5-lipoxygenase (Mus musculus, UniProt P48999)
Construct: The IL-3-dependent murine mast cell clone, MC-9, was used to test the effects; endogenous in cells; host or cells: MC-9 (IL-3-dependent murine mast cell clone)
Sequence (P48999 whole entry): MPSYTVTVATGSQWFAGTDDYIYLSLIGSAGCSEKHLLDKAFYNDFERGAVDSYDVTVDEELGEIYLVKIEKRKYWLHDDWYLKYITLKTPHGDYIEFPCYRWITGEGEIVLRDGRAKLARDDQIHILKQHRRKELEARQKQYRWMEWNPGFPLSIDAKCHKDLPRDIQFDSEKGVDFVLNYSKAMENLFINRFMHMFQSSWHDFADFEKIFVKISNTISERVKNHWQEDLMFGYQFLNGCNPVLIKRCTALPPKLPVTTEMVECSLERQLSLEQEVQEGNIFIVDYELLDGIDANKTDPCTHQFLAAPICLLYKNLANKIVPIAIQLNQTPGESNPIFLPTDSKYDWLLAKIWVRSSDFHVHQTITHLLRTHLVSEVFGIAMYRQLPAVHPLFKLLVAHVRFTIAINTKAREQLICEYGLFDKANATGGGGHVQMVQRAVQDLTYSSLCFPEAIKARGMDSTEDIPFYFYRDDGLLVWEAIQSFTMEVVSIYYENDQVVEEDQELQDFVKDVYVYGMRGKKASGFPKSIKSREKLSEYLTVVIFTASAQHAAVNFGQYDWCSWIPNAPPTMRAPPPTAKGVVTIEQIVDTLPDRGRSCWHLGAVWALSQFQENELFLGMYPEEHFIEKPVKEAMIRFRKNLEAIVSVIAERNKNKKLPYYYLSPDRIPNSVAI
Experiment: 5-Lipoxygenase assay (murine mast cell clone MC-9)
Assay type: cell-based
Settings: MC9, 5 min; MC-9 cell, dose 5 μm; read-out: % Inhibition LTC4

Compound | inhibition at 5 µM
COc1cc(OC)c2c(c1)C(C)(C)C(c1ccc(OC)c(OC)c1)CC2 (centres unmarked) | 53%
COc1cc(OC)c2c(c1)C(C)(C)C(c1ccc(OC)c(OC)c1)CC2=O (centres unmarked) | 36%
CC(=O)Oc1cc(OC(C)=O)c2c(c1)C(C)(C)C(c1ccc(OC(C)=O)c(OC(C)=O)c1)=CC2=O | 43%
COc1cc(OC)c2c(c1)C(C)(C)C(c1ccc(OC)c(OC)c1)CC2(C)O (centres unmarked) | 8%
COc1cc(OC)c2c(c1)C(C)(C)C(c1ccc(OC)c(OC)c1)CC2O (centres unmarked) | 32%
CC1(C)c2cc(O)cc(O)c2CCC1c1ccc(O)c(O)c1 (centres unmarked) | 52%
COc1cc(OC)c2c(c1)C(C)(C)C(c1ccc(OC)c(OC)c1)CC2=NO (centres unmarked) | 65%
COc1cc(OC)c2c(c1)C(C)(C)C(c1ccc(OC)c(OC)c1)=CC2=O | 17%
